System: HCT116 cells
Assay: ATPlite cell viability after drug treatment, HCT116 cells in cell-line or organoid culture media
Assay type: cell-based
Settings: HCT116 in Ex2-6; 3rd; read-out: IC50 (μM) 3rd
Endpoint Name: IC50 (µM)
Give bare numbers, in µM.

Q. Please report the measured IC50 for O=C1[O][Pt]2([NH][C@@H]3CCCC[C@H]3[NH]2)[O]C1=O [oxaliplatin]
A. 22.1

###

Test system: HCT116 cells
Test: ATPlite cell viability after drug treatment, HCT116 cells in cell-line or organoid culture media
Format: cell-based
Conditions: HCT116 cell line in McCoys (control); 1st; read-out: IC50 (μM) 1st
Description: Advanced DMEM/F12+++ (hereinafter referred to as “Ad/DF+++”) was used to produce colorectal cancer organoids. Ad/DF+++ was refrigerated at 4° C. until use, and was used in a cold state during cell washing. […] If the organoids were expanded as needed for the experiment, the medium was carefully removed, taking care not to touch the Matrigel. […] After suspending the pellet in Ad/DF+++, the cells were counted and diluted with medium according to the required number of cells. […]
Endpoint Name: IC50 (µM)
Answers are plain numbers, in µM.

Q. Please report the measured IC50 for O=C1[O][Pt]2([NH][C@@H]3CCCC[C@H]3[NH]2)[O]C1=O [oxaliplatin]
A. 24.1

###

Tested on: HCT116 cells
Assay: ATPlite cell viability after drug treatment, HCT116 cells in cell-line or organoid culture media
Assay type: cell-based
Conditions: HCT116 in Ex2-5; average; read-out: IC50 (μM) Average
Experimental: Advanced DMEM/F12+++ (hereinafter referred to as “Ad/DF+++”) was used to produce colorectal cancer organoids. Ad/DF+++ was refrigerated at 4° C. until use, and was used in a cold state during cell washing. […] If the organoids were expanded as needed for the experiment, the medium was carefully removed, taking care not to touch the Matrigel. […] After suspending the pellet in Ad/DF+++, the cells were counted and diluted with medium according to the required number of cells. […]
Endpoint Name: IC50 (µM)
One number for each entry, in µM.

Q. Please report the measured IC50 for O=C1[O][Pt]2([NH][C@@H]3CCCC[C@H]3[NH]2)[O]C1=O
A. 60

###

Test system: HCT116 cells
Test: ATPlite cell viability after drug treatment, HCT116 cells in cell-line or organoid culture media
Format: cell-based
Conditions: HCT116 in Ex2-4; 2nd; read-out: IC50 (μM) 2nd
Endpoint Name: IC50 (µM)
Numbers only, in µM.

Q. Output reported IC50 of the compound O=C1[O][Pt]2([NH][C@@H]3CCCC[C@H]3[NH]2)[O]C1=O on HCT116 cells.
A. 38.8

###

Tested on: HCT116 cells
Test: ATPlite cell viability after drug treatment, HCT116 cells in cell-line or organoid culture media
Type: cell-based
Conditions: HCT116 in Ex2-1; 2nd; read-out: IC50 (μM) 2nd
Endpoint Name: IC50

Q. Please report the measured IC50 for O=C1[O][Pt]2([NH][C@@H]3CCCC[C@H]3[NH]2)[O]C1=O
A. 52.2 µM

###

Tested on: HCT116 cells
Assay: ATPlite cell viability after drug treatment, HCT116 cells in cell-line or organoid culture media
Assay type: cell-based
Details: HCT116 in Ex2-5; 3rd; read-out: IC50 (μM) 3rd
Endpoint Name: IC50 (µM)
Numbers only, in µM.

Q. Please report the measured IC50 for O=C1[O][Pt]2([NH][C@@H]3CCCC[C@H]3[NH]2)[O]C1=O [oxaliplatin]
A. 103

###

System: HCT116 cells
Test: ATPlite cell viability after drug treatment, HCT116 cells in cell-line or organoid culture media
Format: cell-based
Settings: HCT116 in Ex2-3 (Ex2 + SB 202190 10 μM); 1st; read-out: IC50 (μM) 1st
Endpoint Name: IC50 (µM)
One number for each entry, in µM.

Q. Please report the measured IC50 for O=C1[O][Pt]2([NH][C@@H]3CCCC[C@H]3[NH]2)[O]C1=O
A. 30.2

###

Test system: HCT116 cells
Experiment: ATPlite cell viability after drug treatment, HCT116 cells in cell-line or organoid culture media
Type: cell-based
Settings: HCT116 in Ex2-6; average; read-out: IC50 (μM) Average
Endpoint Name: IC50 (µM)
Answers are plain numbers, in µM.

Q. Please report the measured IC50 for O=C1[O][Pt]2([NH][C@@H]3CCCC[C@H]3[NH]2)[O]C1=O
A. 23.8
